Reference source for all entries: paper PMC2095803

target: Klenow(exo−) DNA polymerase (Escherichia coli, UniProt P00582, D355A/E357A); test: PEP termination assay; assay type: biochemical
measure: IC50 (nM)
Give just the number in nM; leave the unit off.

[Q] Give the measured IC50 for O=[N+]([O-])c1ccccc1CNc1ncnc2c1ncn2[C@H]1C[C@H](O)[C@@H](COP(=O)(O)OP(=O)(O)OP(=O)(O)O)O1
[A] 4.3

* * *

target: AmpliTaqFS DNA polymerase (Thermus aquaticus, UniProt P19821, F667Y/G46D); assay: PEP; format: biochemical, Thermus aquaticus YT-1
Sequence (P19821 whole entry G46D/F667Y): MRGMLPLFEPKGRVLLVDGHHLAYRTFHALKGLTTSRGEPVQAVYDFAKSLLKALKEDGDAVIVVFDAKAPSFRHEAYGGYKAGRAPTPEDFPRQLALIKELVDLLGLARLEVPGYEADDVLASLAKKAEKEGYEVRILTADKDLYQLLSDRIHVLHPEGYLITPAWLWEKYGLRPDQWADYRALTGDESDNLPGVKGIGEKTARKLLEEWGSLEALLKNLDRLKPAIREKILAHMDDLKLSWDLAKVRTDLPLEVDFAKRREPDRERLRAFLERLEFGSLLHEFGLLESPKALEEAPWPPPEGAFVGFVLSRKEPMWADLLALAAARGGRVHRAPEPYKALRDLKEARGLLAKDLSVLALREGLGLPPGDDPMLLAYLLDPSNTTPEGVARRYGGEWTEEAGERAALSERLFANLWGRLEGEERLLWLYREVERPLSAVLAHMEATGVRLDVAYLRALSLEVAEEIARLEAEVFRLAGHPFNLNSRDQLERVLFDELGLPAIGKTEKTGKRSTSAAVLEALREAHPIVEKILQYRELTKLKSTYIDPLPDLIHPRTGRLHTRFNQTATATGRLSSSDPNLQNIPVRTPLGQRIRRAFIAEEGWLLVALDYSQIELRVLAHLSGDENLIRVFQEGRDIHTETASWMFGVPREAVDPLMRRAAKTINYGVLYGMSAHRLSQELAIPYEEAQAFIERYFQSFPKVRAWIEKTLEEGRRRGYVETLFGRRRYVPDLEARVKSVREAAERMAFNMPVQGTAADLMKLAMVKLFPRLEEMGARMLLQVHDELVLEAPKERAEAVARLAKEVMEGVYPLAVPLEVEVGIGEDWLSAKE
measure: IC50 (nM)
Report as a plain number; the unit nM is understood.

[Q] Give IC50 only, for Nc1ncnc2c1ncn2[C@H]1CC[C@@H](COP(=O)(O)OP(=O)(O)OP(=O)(O)O)O1 [ddATP, 2′,3′-dideoxyadenosine triphosphate, reference compound] , using AmpliTaqFS DNA polymerase (Thermus aquaticus, UniProt P19821, F667Y/G46D) data.
[A] 3.3

* * *

target: Therminator DNA polymerase (Thermococcus sp., UniProt Q56366, A485L/D141A/E143A); experiment: PEP termination assay; type: biochemical, Thermococcus species 9ºN-7
measure: pIC50
Scale note: pIC50 = -log10(concentration in M).

[Q] Jot down pIC50 (Therminator DNA polymerase (Thermococcus sp., UniProt Q56366, A485L/D141A/E143A)) of O=[N+]([O-])c1ccccc1CNc1ncnc2c1ncn2[C@H]1C[C@H](O)[C@@H](COP(=O)(O)OP(=O)(O)OP(=O)(O)O)O1 .
[A] 8.74

* * *

target: UniProtKB P19821; experiment: PEP termination assay; assay type: biochemical, Thermus aquaticus YT-1
measure: IC50 (nM)
Reply numerically in nM, unit not repeated.

[Q] Answer with the recorded IC50 of O=[N+]([O-])c1ccccc1CNc1ncnc2c1ncn2[C@H]1C[C@H](O)[C@@H](COP(=O)(O)OP(=O)(O)OP(=O)(O)O)O1 only.
[A] 300

* * *

Molecular target: DeepVent(exo−) DNA polymerase (Pyrococcus sp. GB-D, UniProt Q51334, D141A/E143A)
Sequence (Q51334 with tags, fused parts or gaps D141A/E143A): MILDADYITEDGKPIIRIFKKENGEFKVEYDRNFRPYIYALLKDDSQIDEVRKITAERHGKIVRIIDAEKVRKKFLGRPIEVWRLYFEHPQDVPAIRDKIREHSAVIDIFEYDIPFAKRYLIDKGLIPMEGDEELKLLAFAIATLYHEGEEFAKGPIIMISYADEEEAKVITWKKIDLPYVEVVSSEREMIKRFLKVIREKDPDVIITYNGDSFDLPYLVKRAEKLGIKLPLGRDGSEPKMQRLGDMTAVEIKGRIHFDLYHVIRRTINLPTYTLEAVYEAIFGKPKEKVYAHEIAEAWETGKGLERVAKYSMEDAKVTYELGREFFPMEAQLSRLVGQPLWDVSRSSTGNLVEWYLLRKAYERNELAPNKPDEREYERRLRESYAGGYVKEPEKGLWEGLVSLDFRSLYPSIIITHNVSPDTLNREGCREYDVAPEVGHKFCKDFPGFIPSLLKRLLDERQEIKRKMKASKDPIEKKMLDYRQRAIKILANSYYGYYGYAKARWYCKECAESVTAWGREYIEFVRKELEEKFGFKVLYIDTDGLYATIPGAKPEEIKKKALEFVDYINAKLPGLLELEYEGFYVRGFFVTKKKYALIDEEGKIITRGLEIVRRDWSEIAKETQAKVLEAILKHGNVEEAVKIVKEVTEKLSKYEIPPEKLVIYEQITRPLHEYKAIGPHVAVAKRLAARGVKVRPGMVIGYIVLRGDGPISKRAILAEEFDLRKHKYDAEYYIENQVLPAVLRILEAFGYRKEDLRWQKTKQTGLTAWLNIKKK
Test: PEP termination assay
Format: biochemical, Pyrococcus species GB-D
measure: IC50 (nM)
Write the value in nM as a bare number.

[Q] Give IC50 for O=[N+]([O-])c1ccccc1CNc1ncnc2c1ncn2[C@H]1C[C@H](O)[C@@H](COP(=O)(O)OP(=O)(O)OP(=O)(O)O)O1 tested on DeepVent(exo−) DNA polymerase (Pyrococcus sp. GB-D, UniProt Q51334, D141A/E143A).
[A] 11
